- target: T1, monovalent hVISTA-ECD (human VISTA extracellular domain with His tail) (human, UniProt Q9H7M9 33-193)
- T1 construct: analyte flowed over captured antibody; also called huVISTA-His
- T1 sequence (Q9H7M9 other isoform, or with tags, fused parts or gaps limits assumed): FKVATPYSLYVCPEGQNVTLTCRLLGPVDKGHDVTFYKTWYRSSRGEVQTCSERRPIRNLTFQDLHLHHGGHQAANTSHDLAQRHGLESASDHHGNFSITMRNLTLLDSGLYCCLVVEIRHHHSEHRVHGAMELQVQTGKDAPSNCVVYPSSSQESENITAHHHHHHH
- procedure text: SPR, pH 7.4
measure name: koff (s⁻¹)
Express it in s⁻¹; write the number only.

Look up koff: P1-065318 (41F11_VH_L96E VK A64G) (antibody, V domains shown, Kabat positions; also called P1-065318-1) VH: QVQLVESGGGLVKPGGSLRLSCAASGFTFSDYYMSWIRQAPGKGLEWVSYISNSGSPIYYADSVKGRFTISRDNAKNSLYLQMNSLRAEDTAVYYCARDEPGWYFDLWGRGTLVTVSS VL: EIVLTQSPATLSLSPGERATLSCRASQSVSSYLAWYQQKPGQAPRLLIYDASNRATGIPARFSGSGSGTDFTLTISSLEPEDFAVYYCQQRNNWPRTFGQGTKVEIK
0.0042

Look up koff: P1-064534 (41F11_VH_D31E/S35Y/Y50W/S55E/A60H/Y100E/F100aG) (antibody, V domains shown, Kabat positions; also called P1-064534-1) VH: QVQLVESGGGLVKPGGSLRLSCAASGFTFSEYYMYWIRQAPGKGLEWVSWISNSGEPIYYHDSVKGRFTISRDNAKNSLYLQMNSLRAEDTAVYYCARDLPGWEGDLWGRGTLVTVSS VL: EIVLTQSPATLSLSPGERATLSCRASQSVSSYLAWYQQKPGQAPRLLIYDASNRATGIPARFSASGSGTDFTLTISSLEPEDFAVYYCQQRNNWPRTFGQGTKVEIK
0.000675

Look up koff: P1-064480 (41F11_VH_A60H) (antibody, V domains shown, Kabat positions; also called P1-064480-1) VH: QVQLVESGGGLVKPGGSLRLSCAASGFTFSDYYMSWIRQAPGKGLEWVSYISNSGSPIYYHDSVKGRFTISRDNAKNSLYLQMNSLRAEDTAVYYCARDLPGWYFDLWGRGTLVTVSS VL: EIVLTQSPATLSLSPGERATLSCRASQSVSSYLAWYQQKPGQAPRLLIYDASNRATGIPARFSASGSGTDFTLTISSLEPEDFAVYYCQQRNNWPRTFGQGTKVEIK
0.000755

Look up koff: P1-064516 (41F11_Vk_V29D/A64G/R91T/R96Y) (antibody, V domains shown, also called P1-064516-1) VH: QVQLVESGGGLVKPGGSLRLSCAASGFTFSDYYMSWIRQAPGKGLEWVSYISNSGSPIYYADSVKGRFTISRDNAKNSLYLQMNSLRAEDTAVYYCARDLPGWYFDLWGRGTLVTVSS VL: EIVLTQSPATLSLSPGERATLSCRASQSDSSYLAWYQQKPGQAPRLLIYDASNRATGIPARFSGSGSGTDFTLTISSLEPEDFAVYYCQQTNNWPYTFGQGTKVEIK
0.00223

// data source = patent US20220073617A1
